test system: Saccharomyces cerevisiae; assay: protein stability index of tFT-peptide fusion (C-terminal peptide) (PSI (0-1 scale)); higher = more stable (slower turnover); settings: genetic background: wild type; temperature: 30 C;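 note: PSI is a weighted mean of sequencing reads over stability bins, variants kept only with over 10 reads, mCherry proximal and sfGFP distal, peptide attached via GGGS linker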
Each entry below carries its reported protein stability index.
quantity measured: protein stability index

>  <chain sequence>
PFLIPPRPFSFP

>  <recorded result>
0.709

$$$$
>  <chain sequence>
FPLPPHSSPLPP

>  <recorded result>
0.695

$$$$
>  <chain sequence>
SVFFFLPIYFPF

>  <recorded result>
0.633

$$$$
>  <chain sequence>
QPGTPLSPPPSP

>  <recorded result>
0.49

$$$$
>  <chain sequence>
YTKFASLKRHTQ

>  <recorded result>
0.636

$$$$
>  <chain sequence>
SGFYQNTCSSLV

>  <recorded result>
0.756

$$$$
>  <chain sequence>
SVKTGAAKDRLE

>  <recorded result>
0.693

$$$$
>  <chain sequence>
GGGGAGGGGGGG

>  <recorded result>
0.674

$$$$
>  <chain sequence>
SAWGQAFWCQMG

>  <recorded result>
0.407

$$$$
>  <chain sequence>
ESIQGRHRMSCL

>  <recorded result>
0.691

$$$$
